// data source = paper PMC5540273

- Test system: ACVR1
- condition: concentration: 1 μM, replicates: in singlicate; n = 1;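 also: KINOMEscan kinase panel screen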
Please go through the items and note down their %Inh.
Give bare numbers, in %.

{"molecule": "Cl.Cl.Cl.Fc1ccc(-c2ncn(C3CCNCC3)c2-c2ccnc(Nc3ccccc3)n2)cc1", "%Inh / %": 16}
{"molecule": "CC(=O)Nc1ccc(COc2ccc(Nc3ccnc4cc(-c5ccccn5)ccc34)cc2)cc1.Cl", "%Inh / %": 0}
{"molecule": "CSc1ccc(-c2cc3ncnc(SCC(=O)O)c3s2)cc1", "%Inh / %": 0}
{"molecule": "COc1ccc(Nc2ncc(C#N)c(Nc3ccccc3C(N)=O)n2)cc1N1CCN(C)CC1.Cl", "%Inh / %": 33}
{"molecule": "COc1cc2ncn(-c3cc(OCc4sccc4Cl)c(C(N)=O)s3)c2cc1OC", "%Inh / %": 18}

Batch lookup, %Inh per entry.
1. Fc1ccc(-c2ncn(CCCN3CCOCC3)c2-c2ccccn2)cc1
2. CN1c2ccc(CNc3ccc(F)cc3)cc2-c2c(cnn2C)S1(=O)=O
3. NS(=O)(=O)c1cccc(-c2ccc3ncc(N4CCOCC4)nc3c2)c1
4. Cc1nnc(-c2ccc3ncc(-c4ccc(S(C)=O)cc4)n3c2)o1 (stereo not drawn)

1. 0
2. 0
3. 21
4. 0

* * *

Please go through the items and note down their %Inh.
- Tested on: CSF1R
- condition: concentration: 1 μM, replicates: in singlicate; n = 1
Numbers only, in %.

Some compounds with recorded %Inh:
{"smiles.data": "c1ccc(-c2n[nH]cc2-c2ccnc3ccccc23)nc1", "measurement.units": "%", "%Inh": 6}
{"smiles.data": "Fc1ccc(-c2ncn(CCCN3CCOCC3)c2-c2ccccn2)cc1", "measurement.units": "%", "%Inh": 0}
{"smiles.data": "O=C(Nc1cccc(-c2nn3ncccc3c2-c2ccnc(Nc3cccc(C(F)(F)F)c3)n2)c1)c1c(F)cccc1F", "measurement.units": "%", "%Inh": 98.1}

Batch lookup, %Inh per entry.
1. O=c1cc(N2CCOCC2)nc2n(Cc3cccc(C(F)(F)F)c3)ccn12
2. Nc1nc(-c2ccc3c(N)n[nH]c3c2)cc(N2CCCC2)n1

1. 0
2. 2

* * *

- System: JAK1(JH2domain-pseudokinase)
- condition: concentration: 1 μM, replicates: in singlicate; n = 1
Please go through the items and note down their %Inh.
Entry format: amount then unit.

Some molecules with recorded %Inh:
{"molecule": "O=C(c1ccc(-c2cc(-c3c[nH]nc3-c3ccccn3)ccn2)cc1)N1CCOCC1 [GW812171]", "system": "JAK1(JH2domain-pseudokinase)", "%Inh": "48%"}
{"molecule": "O=C(Nc1cccc(-c2nn3ncccc3c2-c2ccnc(Nc3cccc(C(F)(F)F)c3)n2)c1)c1c(F)cccc1F [GSK299495]", "system": "JAK1(JH2domain-pseudokinase)", "%Inh": "0%"}
{"molecule": "Cc1ccc(C(=O)NCC(N)=O)cc1-n1c(C)cc(OCc2ccc(F)cc2F)c(Br)c1=O", "system": "JAK1(JH2domain-pseudokinase)", "%Inh": "49%"}
{"molecule": "Cl.Oc1cccc(Nc2ccnc3cc(-c4ccncc4)ccc23)c1 [GW494601]", "system": "JAK1(JH2domain-pseudokinase)", "%Inh": "0%"}
{"molecule": "Nc1nc(-c2ccc3c(N)n[nH]c3c2)cc(N2CCCC2)n1 [GSK2227430]", "system": "JAK1(JH2domain-pseudokinase)", "%Inh": "11%"}
{"molecule": "Cc1ccc(NC(=O)c2ccnc(N3CCN(C)CC3)c2)cc1-c1ccc(C(=O)NCC2CC2)cc1 [GW775604]", "system": "JAK1(JH2domain-pseudokinase)", "%Inh": "27%"}

Batch lookup, %Inh per entry.
1. COc1cc2ncn(-c3cc(OCc4sccc4Cl)c(C(N)=O)s3)c2cc1OC [GSK448459]
2. COc1cc(Nc2nccc(N3CCC(NC(=O)c4cccc(NC(C)=O)c4)C3)n2)cc(OC)c1OC (stereo not drawn) [GSK1379754]
3. O=c1cc(N2CCOCC2)nc2n(Cc3cccc(C(F)(F)F)c3)ccn12 [GSK2297543]
4. Fc1ccc(-c2nn3c(OCC(F)(F)F)cccc3c2-c2ccncc2)cc1 [GW514784]
5. c1ccc(-c2cc(-c3c[nH]nc3-c3ccccn3)ccn2)cc1 [GW576604]

["0%", "11%", "0%", "14%", "0%"]

Batch lookup, %Inh per entry.
1. Cn1ccc2ncnc(Oc3ccc(NC(=O)Nc4ccncc4)c(Cl)c3)c21
2. O=c1cc(N2CCOCC2)nc2n(Cc3cccc(F)c3)ccn12 [GSK2297430]

1: 0%; 2: 0%

* * *

Please go through the items and note down their %Inh.
- Test system: EPHA2
- condition: concentration: 1 μM, replicates: in singlicate; n = 1
One number for each entry, in %.

{"compound": "CSc1ccc(-c2cc3ncnc(SCC(=O)O)c3s2)cc1", "%Inh, %": 0}
{"compound": "Cc1nnc(-c2ccc3occ(-c4ccc(C(C)O)cc4)c3c2)o1 (stereo not drawn)", "%Inh, %": 0}
{"compound": "Cc1cccc(-c2nc(Nc3ccc4ncsc4c3)c3ccccc3n2)n1", "%Inh, %": 0}

Batch lookup, %Inh per entry.
1. O=c1cc(N2CCOCC2)nc2n(Cc3cccc(F)c3)ccn12
2. Cc1nnc(-c2ccc(C)c(-c3ccc(C(=O)Nc4ccc(NS(C)(=O)=O)cc4)cc3)c2)o1

1. 9
2. 16

Batch lookup, %Inh per entry.
1. COCCNC(=O)c1ccc(-c2cc(C(=O)NC3CC3)cc(F)c2C)cc1
2. COc1ccc(Nc2nccc(N3CCC(NC(=O)Nc4cccc(C(C)=O)c4)C3)n2)cc1 (stereo not drawn)
3. CCn1cnc2c(N)ncnc21

[7, 4, 14]

Batch lookup, %Inh per entry.
1. O=C(NOCC1CC1)c1ccc(F)c(F)c1Nc1ccc(I)cc1Cl
2. Cl.Oc1cccc(Nc2ccnc3cc(-c4ccncc4)ccc23)c1
3. O=C1NC(=O)C(N2CCc3ccccc32)=C1c1cccc(Cl)c1

1. 0
2. 84
3. 15

Batch lookup, %Inh per entry.
1. NCCNS(=O)(=O)c1ccc(-c2ccnc3[nH]ccc23)cc1
2. NS(=O)(=O)CCc1cccc(Nc2nccc(-c3c(-c4cccc(NC(=O)c5c(F)cccc5F)c4)nn4ccccc34)n2)c1
3. COc1cc2ncn(-c3cc(OCc4sccc4Cl)c(C(N)=O)s3)c2cc1OC
4. Cc1ccc(C(=O)NCC(N)=O)cc1-n1c(C)cc(OCc2ccc(F)cc2F)c(Br)c1=O
5. CC(C)Oc1ccc2c(-c3ccnc(Nc4ccc(N5CCN(C)CC5)cc4)n3)cnn2n1
6. Cc1nnc(-c2ccc3ncc(-c4ccc(S(C)=O)cc4)n3c2)o1 (stereo not drawn)
7. COc1ccc(COc2cc(-n3cnc4ccccc43)sc2C(N)=O)cc1
8. Nc1nc(-c2ccc3c(N)n[nH]c3c2)cc(N2CCCC2)n1

1: 0; 2: 71; 3: 0; 4: 40; 5: 0; 6: 0; 7: 0; 8: 12

Batch lookup, %Inh per entry.
1. NCC(NC(=O)c1cc(-c2cn[nH]c2)c(-c2ccnc3[nH]ccc23)s1)c1ccccc1.O=C(O)C(F)(F)F.O=C(O)C(F)(F)F (stereo not drawn)
2. CNc1ncnc2[nH]ncc12

[0, 0]

* * *

- System: WEE2
- condition: concentration: 1 μM, replicates: in singlicate; n = 1
Please go through the items and note down their %Inh.
Answers are plain numbers, in %.

Batch lookup, %Inh per entry.
1. Cc1ccc(C(=O)NCC(N)=O)cc1-n1c(C)cc(OCc2ccc(F)cc2F)c(Br)c1=O
2. NS(=O)(=O)c1cccc(-c2ccc3nccc(-c4cccc(S(N)(=O)=O)c4)c3c2)c1
3. CC(C)(CN)c1nc(-c2ccc(Cl)c(O)c2)c(-c2ccncc2)[nH]1.O=C(O)C(F)(F)F
4. CN1c2ccc(NCc3ccc(F)cc3)cc2-c2c(cnn2C)S1(=O)=O
5. Fc1ccc(-c2nn3c(OCC(F)(F)F)cccc3c2-c2ccncc2)cc1

1: 17; 2: 0; 3: 0; 4: 0; 5: 0

Batch lookup, %Inh per entry.
1. Cn1cc(-c2ccc3c(c2)CCN3C(=O)Cc2ccccc2Cl)c2c(N)ncnc21
2. Cc1cccc(-c2nc(Nc3ccc4ncsc4c3)c3ccccc3n2)n1

[0, 6]

* * *

Please go through the items and note down their %Inh.
- Test system: EPHA5
- condition: concentration: 1 μM, replicates: in singlicate; n = 1
Answers are plain numbers, in %.

Some molecules with recorded %Inh:
{"molecule": "O=C(c1ccc(-c2cc(-c3c[nH]nc3-c3ccccn3)ccn2)cc1)N1CCOCC1", "%Inh / %": 1}
{"molecule": "NS(=O)(=O)c1cccc(-c2ccc3ncc(N4CCOCC4)nc3c2)c1", "%Inh / %": 0}
{"molecule": "O=C1NC(=O)C(N2CCc3ccccc32)=C1c1cccc(Cl)c1", "%Inh / %": 17}
{"molecule": "Fc1ccc(-c2ncn(CCCN3CCOCC3)c2-c2ccccn2)cc1", "%Inh / %": 0}
{"molecule": "Cl.Oc1cccc(Nc2ccnc3cc(-c4ccncc4)ccc23)c1", "%Inh / %": 95.3}
{"molecule": "CCCCCc1nc2c(N)ncnc2n1CCCCC", "%Inh / %": 0}
{"molecule": "O=c1cc(N2CCOCC2)nc2n(Cc3cccc(F)c3)ccn12", "%Inh / %": 0}
{"molecule": "COc1cc(Nc2nccc(N3CCC(NC(=O)c4cccc(NC(C)=O)c4)C3)n2)cc(OC)c1OC (centres unmarked)", "%Inh / %": 6}

Batch lookup, %Inh per entry.
1. NCCNS(=O)(=O)c1ccc(-c2ccnc3[nH]ccc23)cc1
2. Cc1cccc(-c2nc(-c3ccc(S(C)(=O)=O)cc3)sc2-c2ccncc2)c1
3. CC(C)Oc1ccc2c(-c3ccnc(Nc4ccc(N5CCN(C)CC5)cc4)n3)cnn2n1

1. 0
2. 1
3. 0
